B1: HDV Ribozyme (parent)
chain: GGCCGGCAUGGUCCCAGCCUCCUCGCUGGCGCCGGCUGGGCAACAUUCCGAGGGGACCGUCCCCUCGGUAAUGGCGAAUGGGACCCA

- Variants of: B1
- Experimental protocol: self-cleavage, relative activity (ratio to wild type); higher = more cleavage; co-transcriptional

{"columns": ["Sequence input", "self-cleavage"],
 "data": [
  ["GGCCGGCAUGGUCCCAUCCUCCUCGCUGGCGCCGGCUGGGCAACAUUCCGAGGGGACCGUCCCCUCGGUAAUAGCGAAUGGGACCCA [G17U G73A]", 0.233],
  ["GGCCGGCCUGGUCCCAGCCUCCUCGCUGGCGCCGGCUGGGCAACAUUCCGAGGGGACCGUCCCCUCGGUAAUGGCGAACGGGACCCA [A8C U79C]", 0.181],
  ["GGCCGGCAUGGUCUAAGCCUCCUCGCUGGCGCCGGCUGGGCAACAUUCCGAGGGGACCGUCCCCUCGGUAAUGGCGAAUGGGACCCA [C14U C15A]", 0.475],
  ["GGCCGGCAUGGUCCCAGCCUCCUCGGUGGCGCCGGCUGGGCAACAUUCCGAGGGGACCGUCCCCUCGGUAAUGGCGGAUGGGACCCA [C26G A77G]", 0.929],
  ["GGCCGGCAUGGUCCCAGCCUCCUCGCUGGCGCCGGCUGGGCAACAUUCCCAGGGGACCGUCCCCUCGGUAAUGGCGAAUGGGAUCCA [G50C C84U]", 0.554],
  ["GGCCGGCAUGGUCCCAGCGUCCUCGCUGGCGCCGGCUGGGCUACAUUCCGAGGGGACCGUCCCCUCGGUAAUGGCGAAUGGGACCCA [C19G A42U]", 0],
  ["GGCCGGCAUGGUCCCAGGCUCCUCGCUGGCGCCGGCUGGGCAACAUUCCGAGGGGACCGUCCCCUCGCUAAUGGCGAAUGGGACCCA [C18G G68C]", 0.119],
  ["GGCCGGCAUGGUCCCAGCCUCCUCGCUGGCGCCGGCUGGGCAACAUUCCCAGGGGACCGUCCCCUCGGUCAUGGCGAAUGGGACCCA [G50C A70C]", 0.517],
  ["GGCCGGCAUGGUCCCAGCCCCCUCGCUGGCGCCGGCUGGGCAACCUUCCGAGGGGACCGUCCCCUCGGUAAUGGCGAAUGGGACCCA [U20C A45C]", 0],
  ["GGCCGGCACGGUCCCAGCCUCCUCGCUGGCGCCGGCUGGGCAACAUUCCGAGGGGACCGUCCCCUCGGUAAUGGCGAAUCGGACCCA [U9C G80C]", 0.256],
  ["GGCCGGCAUGGUCCCAGCCUCCACGCUGGCGCCGGCUGGGCAACAUUCCGAGGGGACCGUCCCCUCGGCAAUGGCGAAUGGGACCCA [U23A U69C]", 0.942],
  ["GGCCGGCAUGGUCCCAGCCUCCUCGCUGGCGCCGGCUGGGCAACAUUCCGAGGGGACCGUCCCCUCGGUAAUGGCGAGUGGGACCCC [A78G A87C]", 0.452],
  ["GGCCGGCAUGGUCCCUGCCUCCUCGCUGGCGCCGGCUGGGCAACAUUCCGAGGGGACCGUCCCCUCGAUAAUGGCGAAUGGGACCCA [A16U G68A]", 1.09],
  ["GGCCGGCAUGGUCCCAGACUCCUCGCUGGCGCCGGCUGGGCAACAUUCCGAGGGGACCGUCCCCUCGGUAAUGGCGAAUGGGACCCG [C18A A87G]", 0.0811],
  ["GGCCGGCAUGGUCCCAGCCUCCUCGCUGGCGCCGGCUGGGCCACAUUCCGAGGGGACCAUCCCCUCGGUAAUGGCGAAUGGGACCCA [A42C G59A]", 0.213],
  ["GCCCGGCAUGGUCCCAGCCUCCUCGCUGGCGCCGGCUGGGCAACAUUCCGAGGGGACCGUCCACUCGGUAAUGGCGAAUGGGACCCA [G2C C63A]", 0.0213],
  ["GGCCGGCAGGGUCCCAGCCUCCUCGCUGGCGCCGGCUGGGCAACAUUCCGAGGGGACCGUCCCCUCGGUAAUGGCGAAUGGGCCCCA [U9G A83C]", 0.554],
  ["GGCCGGCAUGGUCCCAGCCUCCUCGCUGGCGCCGGCUGGGCAACAUUCCGAGGGGACCGUCCCCCAGGUAAUGGCGAAUGGGACCCA [U65C C66A]", 1.18],
  ["GGCCGGCAUGGUCCCAGCCUCCUCGCUGGCGCCGGCUGGGCAACAUUCCGAGGGGACCGUCCCCUCGGUAAUGGCGAAUGGGAACCA [C84A]", 0.895],
  ["GGCCGGCAUGGGCCCAGCCUCCUCGCUGGCGCCGGCUGGGCAACAUUCCGAGGGGACCGUCCCCUCGGUAAUGGCGAGUGGGACCCA [U12G A78G]", 0.612],
  ["GGCCGGCAUGGUCCCAGCCUCCUCGCUGGCGCCGGCUGCGCAACUUUCCGAGGGGACCGUCCCCUCGGUAAUGGCGAAUGGGACCCA [G39C A45U]", 0.0475],
  ["GGCCGGCAUGGUCCCAGCCUCUUCGCUGGCGCCCGCUGGGCAACAUUCCGAGGGGACCGUCCCCUCGGUAAUGGCGAAUGGGACCCA [C22U G34C]", 0.0852]
]}
